target: T1, human MSLN-R3-his protein (human, UniProt Q13421 487-598); assay: ELISA, coated MSLN-R3
T1 construct: Region 3 of human MSLN, His-tagged; also called human MSLN-R3 protein; hMSLN-R3-his; not shown: His tag
T1 sequence (Q13421 495-606): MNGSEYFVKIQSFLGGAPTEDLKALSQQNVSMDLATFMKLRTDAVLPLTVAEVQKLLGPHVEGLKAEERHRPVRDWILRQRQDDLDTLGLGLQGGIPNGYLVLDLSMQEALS
parameter.measured: OD450 at 1 nM (OD450)
Numbers only, in OD450.

Dear colleague, could you please provide OD450 at 1 nM for the binders listed below?
1. S009-F1.62.9 (antibody, human IgG1, kappa, V domains shown, Human-murine chimeric antibody, human IgG1/kappa constant regions) VH: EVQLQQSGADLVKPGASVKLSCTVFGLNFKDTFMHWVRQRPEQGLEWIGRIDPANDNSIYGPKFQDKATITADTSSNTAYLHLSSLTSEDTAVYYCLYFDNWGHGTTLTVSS VL: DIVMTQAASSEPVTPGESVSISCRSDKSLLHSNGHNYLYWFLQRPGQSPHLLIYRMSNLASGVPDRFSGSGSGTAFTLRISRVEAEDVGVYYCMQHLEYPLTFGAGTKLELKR
2. S009-F1.56.1 (antibody, human IgG1, kappa, V domains shown, Human-murine chimeric antibody, human IgG1/kappa constant regions) VH: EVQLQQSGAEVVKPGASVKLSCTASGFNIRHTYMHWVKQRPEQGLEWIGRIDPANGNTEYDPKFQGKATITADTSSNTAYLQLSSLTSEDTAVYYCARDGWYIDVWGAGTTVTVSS VL: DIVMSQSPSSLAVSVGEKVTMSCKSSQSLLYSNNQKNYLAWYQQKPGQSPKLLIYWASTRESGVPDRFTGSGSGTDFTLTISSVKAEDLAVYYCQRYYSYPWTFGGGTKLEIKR
3. S009-F1.59.1 (antibody, human IgG1, kappa, V domains shown, Human-murine chimeric antibody, human IgG1/kappa constant regions) VH: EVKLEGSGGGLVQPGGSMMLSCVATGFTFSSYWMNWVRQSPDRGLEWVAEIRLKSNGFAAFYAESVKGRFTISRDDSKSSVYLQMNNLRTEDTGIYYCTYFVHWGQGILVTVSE VL: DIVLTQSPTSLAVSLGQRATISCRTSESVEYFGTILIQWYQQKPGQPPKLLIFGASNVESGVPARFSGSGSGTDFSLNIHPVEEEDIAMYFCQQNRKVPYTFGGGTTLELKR

Given back:
1: 1.06; 2: 0.04; 3: 1.62
